Reference source for all entries: ChEMBL document CHEMBL1127806

experiment: Critical micelle concentration determined from the plots of the fluorescence intensity as a function of compound concentration; assay type: ADME
Measured CMC by item
Numbers only here, please. The scale is mM.

Reference set, count: 5
CCCCCC(=O)OC[C@H](COP(=O)(O)OC[C@H]1CCCN1)OC(=O)CCCCC; 0.5
CCCCCCCCOC[C@H](COP(=O)([O-])OC)SC(=O)CCCCCCC.[Li+]; 0.13
CCCCCCCC(=O)SC[C@H](COP(=O)([O-])OC)SC(=O)CCCCCCC.[Li+]; 0.03
CCCOC[C@H](COP(=O)([O-])OC)SC(=O)CCC.[Li+]; 3
CCCCCCC(=O)SC[C@H](COP(=O)([O-])OC)SC(=O)CCCCCC.[Li+]; 0.3

QUERY: Which measured CMC value corresponds to CCCCCCCC(=O)S[C@H](COCCCCC)COP(=O)([O-])OC.[Li+] ?
RESULT: 1.25

QUERY: Next entry: CCCCCCCCCC(=O)S[C@H](COCc1ccc(Oc2ccccc2)cc1)COP(=O)([O-])OC.[Li+]
RESULT: 0.04

QUERY: Next entry: CCCCCCCCCC(=O)S[C@H](COC/C=C/c1ccccc1)COP(=O)([O-])OC.[Li+]
RESULT: 0.04

* * *

Measured CMC by item
assay: Critical micelle concentration determined from the plots of the fluorescence intensity as a function of compound concentration; format: ADME
Numbers only here, please. The scale is mM.

Reference set, count: 3
CCCCCC(=O)SC[C@H](COP(=O)(OC)OC)SC(=O)CCCCC; 0.04
CCCCCCCCCC(=O)S[C@H](COCc1ccccc1)COP(=O)([O-])OC.[Li+]; 0.2
CCCCCCCC(=O)S[C@H](COCCC)COP(=O)([O-])OC.[Li+]; 1

QUERY: Which measured CMC value corresponds to CCCCCC(=O)OC[C@H](COP(=O)(O)OC[C@@H]1CCCN1)OC(=O)CCCCC ?
RESULT: 0.8

* * *

assay: Critical micelle concentration determined from the plots of the fluorescence intensity as a function of compound concentration; format: ADME
property-name: CMC (mM)
Numbers only here, please. The scale is mM.

Reference set, count: 3
CCCC(=O)SC[C@H](COP(=O)([O-])OC)SC(=O)CCC.[Li+]; 2.3
CC/C=C\CCOC[C@H](COP(=O)([O-])OC)SC(=O)CCCCCCCCC.[Li+]; 0.2
CCCCCCCCCC(=O)S[C@H](COCc1ccc(-c2ccccc2)cc1)COP(=O)([O-])OC.[Li+]; 0.1

Now turn to the next compound.
QUERY: Which measured CMC value corresponds to CCCCCCCCCC(=O)S[C@H](COCCC(C)(C)C)COP(=O)([O-])OC.[Li+] ?
RESULT: 0.4

* * *

assay: Ratio of catalysis rate (kcat) and Michaelis-Menten constant (Km) of the compound
Measured Ratio by item

Reference set, count: 4
CCCCCCCCCC(=O)S[C@H](COCc1ccc(Oc2ccccc2)cc1)COP(=O)([O-])OC.[Li+]; 4600 l s-1 M-1
CCCCCCOC[C@H](COP(=O)(O)OC)SC(=O)CCc1ccccc1; 160 l s-1 M-1
CCCCCC(=O)SC[C@H](COP(=O)(OC)OC)SC(=O)CCCCC; < 100 l s-1 M-1
CCCC(=O)SC[C@H](COP(=O)([O-])OC)SC(=O)CCC.[Li+]; 200 l s-1 M-1

QUERY: Which measured Ratio value corresponds to CCCCCCCCOC[C@H](COP(=O)([O-])OC)SC(=O)CCCCCCC.[Li+] ?
RESULT: 12000 l s-1 M-1

QUERY: Next entry: CCCCCCCCCC(=O)S[C@H](COCCC(C)(C)C)COP(=O)([O-])OC.[Li+]
RESULT: 627 l s-1 M-1

QUERY: Next entry: CCCCCCCC(=O)S[C@H](COCCCCC)COP(=O)([O-])OC.[Li+]
RESULT: 7000 l s-1 M-1

QUERY: Next entry: CCCCCOC[C@H](COP(=O)(O)OC)SC(=O)CCC
RESULT: < 100 l s-1 M-1

QUERY: Next entry: CCCCCCCCCC(=O)S[C@H](COC/C=C/c1ccccc1)COP(=O)([O-])OC.[Li+]
RESULT: 19000 l s-1 M-1

QUERY: Next entry: CCCCCCOC[C@H](COP(=O)(O)OC)SC(=O)c1ccccc1
RESULT: < 100 l s-1 M-1

QUERY: Next entry: CCCCCCCC(=O)SC[C@H](COP(=O)([O-])OC)SC(=O)CCCCCCC.[Li+]
RESULT: 408000 l s-1 M-1

QUERY: Next entry: CCCCCCCCCC(=O)S[C@H](COCc1ccccc1)COP(=O)([O-])OC.[Li+]
RESULT: 5000 l s-1 M-1

* * *

Measured Hydrolysis (nmol min-1 mg-1) by item
assay: Hydrolysis rate of the compound
Lab note: jot the number down without any unit.

CCCCCC(=O)OC[C@H](COP(=O)(O)OCCN)OC(=O)CCCCC; 5.3
CCCCCC(=O)OC[C@H](COP(=O)(O)OC[C@@H]1CCCN1)OC(=O)CCCCC; 12

Now turn to the next molecule.
QUERY: Which measured Hydrolysis (nmol min-1 mg-1) value corresponds to CCCCCC(=O)OC[C@H](COP(=O)(O)OC[C@H]1CCCN1)OC(=O)CCCCC ?
RESULT: 13

* * *

assay: Ratio of catalysis rate (kcat) and Michaelis-Menten constant (Km) of the compound
property-name: Ratio

Reference set, count: 5
CCCCCCCCC(=O)SC[C@H](COP(=O)([O-])OC)SC(=O)CCCCCCCC.[Li+]; 541000 l s-1 M-1
CCCCCCCC(=O)S[C@H](COCCC)COP(=O)([O-])OC.[Li+]; 1200 l s-1 M-1
CCCCCCCCCC(=O)S[C@H](COCc1ccc(-c2ccccc2)cc1)COP(=O)([O-])OC.[Li+]; 2500 l s-1 M-1
CCCCC(=O)SC[C@H](COP(=O)([O-])OC)SC(=O)CCCC.[Li+]; 870 l s-1 M-1
CCC(=O)SC[C@H](COP(=O)([O-])OC)SC(=O)CC.[Li+]; < 10 l s-1 M-1

QUERY: Which measured Ratio value corresponds to CCCOC[C@H](COP(=O)([O-])OC)SC(=O)CCC.[Li+] ?
RESULT: < 10 l s-1 M-1

QUERY: Next entry: CCCCCCOC[C@H](COP(=O)(O)OC)SC(=O)CCC(C)C
RESULT: < 100 l s-1 M-1

QUERY: Next entry: CCCCCCCCOC[C@H](COP(=O)(O)OC)SC(=O)CCC
RESULT: 3700 l s-1 M-1

QUERY: Next entry: CCCCCCC(=O)SC[C@H](COP(=O)([O-])OC)SC(=O)CCCCCC.[Li+]
RESULT: 37700 l s-1 M-1

* * *

assay: Ratio of catalysis rate (kcat) and Michaelis-Menten constant (Km) of the compound
Measured Ratio by item

Reference set, count: 2
CCCCCC(=O)SC[C@H](COP(=O)([O-])OC)SC(=O)CCCCC.[Li+]; 1800 l s-1 M-1
CC/C=C/C(=O)S[C@H](COCCCCCC)COP(=O)(O)OC; < 100 l s-1 M-1

Now turn to the next compound.
QUERY: Which measured Ratio value corresponds to CC/C=C\CCOC[C@H](COP(=O)([O-])OC)SC(=O)CCCCCCCCC.[Li+] ?
RESULT: 5900 l s-1 M-1
